biological target: T1, human CTLA-4 (CTLA4), full-length, expressed on the surface of CHO cells (human, UniProt P16410 36-223); experiment: flow cytometry, CHO cells stably expressing human CTLA-4, 33.3 nM Fc fusion, PE anti-human Fc
T1 construct: also called huCTLA4
T1 sequence (P16410 36-223): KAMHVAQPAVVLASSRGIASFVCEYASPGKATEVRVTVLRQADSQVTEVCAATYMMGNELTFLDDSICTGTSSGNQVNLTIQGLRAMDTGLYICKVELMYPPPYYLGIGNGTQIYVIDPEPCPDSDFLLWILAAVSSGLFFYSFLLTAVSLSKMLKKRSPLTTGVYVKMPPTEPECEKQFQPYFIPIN
MFI at 33.3 nM for assorted binders
State just the number; it will be interpreted in MFI.

Reference set (2 entries):
variant CD80 IgV-Fc H18Y/Y31H/E35D/M47V/A71G/L85Q (Fc fusion, not shown: a dimerising Fc or GST) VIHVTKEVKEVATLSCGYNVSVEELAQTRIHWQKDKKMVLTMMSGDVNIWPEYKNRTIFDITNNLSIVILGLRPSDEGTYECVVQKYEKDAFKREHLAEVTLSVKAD
3840
variant CD80 IgV-Fc V22A/R29H/E35D/D46E/M47I (Fc fusion, not shown: a dimerising Fc or GST) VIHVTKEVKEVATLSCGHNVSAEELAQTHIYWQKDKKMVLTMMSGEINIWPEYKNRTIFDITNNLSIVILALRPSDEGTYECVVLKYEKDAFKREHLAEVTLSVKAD
77400

Name the reported MFI at 33.3 nM value associated with the binder variant CD80 IgV-Fc Q33L/E35D/M47L/V68M/L85Q/E88D (Fc fusion, not shown: a dimerising Fc or GST) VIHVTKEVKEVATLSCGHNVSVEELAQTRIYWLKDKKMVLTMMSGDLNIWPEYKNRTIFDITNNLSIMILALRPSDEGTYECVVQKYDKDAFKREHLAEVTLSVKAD 3530

I would be grateful if you could share the reported MFI at 33.3 nM for variant CD80 IgV-Fc E35D/D46E/M47V/L97Q (Fc fusion, not shown: a dimerising Fc or GST) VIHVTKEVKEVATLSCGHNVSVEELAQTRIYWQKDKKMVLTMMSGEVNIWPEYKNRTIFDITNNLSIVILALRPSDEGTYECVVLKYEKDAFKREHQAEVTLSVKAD . 305000

Consider the binder variant CD80 IgV-Fc E35D/M47V/T62A/A71G/V83A/Y87H/L97M (Fc fusion, not shown: a dimerising Fc or GST) VIHVTKEVKEVATLSCGHNVSVEELAQTRIYWQKDKKMVLTMMSGDVNIWPEYKNRTIFDIANNLSIVILGLRPSDEGTYECAVLKHEKDAFKREHMAEVTLSVKAD and give its measured MFI at 33.3 nM. 18100

Give its MFI at 33.3 nM value. Item: variant CD80 IgV-Fc Q33L/E35D/M43V/M47I/A71G (Fc fusion, not shown: a dimerising Fc or GST) VIHVTKEVKEVATLSCGHNVSVEELAQTRIYWLKDKKMVLTMVSGDINIWPEYKNRTIFDITNNLSIVILGLRPSDEGTYECVVLKYEKDAFKREHLAEVTLSVKAD 14000

Consider the binder shown here: variant CD80 IgV-Fc H18Y/E35D/V68M/L97Q (Fc fusion, not shown: a dimerising Fc or GST) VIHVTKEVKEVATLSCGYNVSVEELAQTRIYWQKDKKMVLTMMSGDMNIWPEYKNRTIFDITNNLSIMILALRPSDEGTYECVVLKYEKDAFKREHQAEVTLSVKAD What is its recorded MFI at 33.3 nM? 173000

Fill in: MFI at 33.3 nM of variant CD80 IgV-Fc E35D/M47V/A71G/L85M/L97Q (Fc fusion, not shown: a dimerising Fc or GST) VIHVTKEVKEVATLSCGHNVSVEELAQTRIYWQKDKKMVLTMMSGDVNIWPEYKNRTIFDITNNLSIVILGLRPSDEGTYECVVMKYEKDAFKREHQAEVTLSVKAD is ___ 239000

Return reported MFI at 33.3 nM; argument: variant CD80 IgV-Fc Q33L/E35D/N48K/L85Q/L97Q (Fc fusion, not shown: a dimerising Fc or GST) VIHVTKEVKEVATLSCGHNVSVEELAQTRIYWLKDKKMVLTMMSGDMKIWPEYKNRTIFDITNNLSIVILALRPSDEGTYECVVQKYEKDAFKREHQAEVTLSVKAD 1180
